Measured growth of individual entries
test system: DU-145 prostate; assay: NCI-60 one-dose screen, 48 h (100 = growth as untreated, 0 = no growth, -100 = all killed); conditions: 10 µM unless noted
The panel holds about 83,000 compounds, 20% with a hit somewhere; the sample as a whole holds those more often.
Field: numeric (%). Do not append units.

[
  {
    "MOL_SMILES": "COc1ccc(/C=C(/C(=O)N2CCCC2)c2cc(OC)c(OC)c(OC)c2)cc1N",
    "growth, %": 24.6
  },
  {
    "MOL_SMILES": "Oc1c(Br)cc(Br)cc1Br.[Cu+2]",
    "growth, %": 108
  },
  {
    "MOL_SMILES": "O=C(NCCNC(=O)c1ccc([As](O)O)cc1)c1ccc([As](O)O)cc1",
    "growth, %": 103
  },
  {
    "MOL_SMILES": "Cc1cc(C)nc(C)c1.[Cl][Hg][Cl]",
    "growth, %": 102
  }
]

Let us examine a further case.
growth reading for C[C@@H]1CC[C@@H]2[C@@H]1[C@H](OC(=O)/C=C/C1CCCCC1)[C@]1(C3CCCCC3)C[C@@H](OC(=O)CO)[C@@]2(C)O1 : 82.1

---

test system: HL-60(TB) leukemia; assay: NCI-60 one-dose screen, 48 h (100 = growth as untreated, 0 = no growth, -100 = all killed); conditions: 10 µM unless noted
Compounds without any hit were thinned out: in the full panel of roughly 83,000, 20% have a hit. Calls of active or inactive are those of the source. How the source made its calls: active means growth percent below 10; inactive means the rest.
OBSERVABLE: growth

These recorded examples may help you get a feel for the data.
[
  {
    "COMPOUND": "O=C(NNC(=O)c1cccc(Cl)c1)c1ccccc1",
    "growth": "94.3% (inactive)"
  },
  {
    "COMPOUND": "CN(CCOc1ccc(C#N)cc1)CCOc1ccc(C#N)cc1",
    "growth": "42.4% (inactive)"
  },
  {
    "COMPOUND": "C#CCOc1cccc(-c2ncc3cc(NC(=O)CCl)ccc3n2)c1",
    "growth": "14.3% (inactive)"
  },
  {
    "COMPOUND": "COc1ccc(C2CC(c3ccc(OC)c(OC)c3)=NN2C(=O)c2cc(OC)c(OC)c(OC)c2)cc1 (stereo unspecified)",
    "growth": "5.49% (active)"
  },
  {
    "COMPOUND": "Cc1ccc(Cl)cc1NC(=O)c1sc2nc3c(cc2c1N)C(=O)CCC3",
    "growth": "82.2% (inactive)"
  }
]

Tested system HL-60(TB) leukemia; growth recorded for COc1ccc(/C=C(\C#N)n2nnc3ccc(Cl)cc32)cc1 was 86.6% (inactive)

---

tested on: CCRF-CEM leukemia; experiment: NCI-60 one-dose screen, 48 h (100 = growth as untreated, 0 = no growth, -100 = all killed); conditions: 10 µM unless noted
The panel holds about 83,000 compounds, 20% with a hit somewhere; the sample as a whole holds those more often.
OBSERVABLE: growth (%)
Field: numeric (%). Do not append units.

These recorded examples may help you get a feel for the data.
[
  {
    "COMPOUND": "COc1ccc(OC)c(/C=C(/C)[N+](=O)[O-])c1",
    "growth [%]": -2.22
  },
  {
    "COMPOUND": "CN1C(=O)NC(=O)C(N=Nc2ccc(Cl)cc2)C1=O (stereo not drawn)",
    "growth [%]": 106
  },
  {
    "COMPOUND": "OC1(c2ccc(Cl)cc2Cl)c2ccccc2C2=NCCN21 (stereo not drawn)",
    "growth [%]": 90.5
  },
  {
    "COMPOUND": "NC(=O)OCC(CO)(c1ccccc1)c1ccccc1",
    "growth [%]": 94.4
  },
  {
    "COMPOUND": "O=S(=O)(c1ccc(Cl)cc1)C(Cl)(Cl)Cl",
    "growth [%]": 25.3
  },
  {
    "COMPOUND": "O=C(O)c1[nH]c(=O)[nH]c(=O)c1F",
    "growth [%]": 78.4
  }
]

Let us examine a further case.
growth reading for O=c1[nH]c2cc(Cl)ccc2n1C1CCN(CCCC(c2ccc(F)cc2)c2ccc(F)cc2)CC1 : -39.3

---

Measured growth of individual entries
System: HL-60(TB) leukemia
Assay: NCI-60 one-dose screen, 48 h (100 = growth as untreated, 0 = no growth, -100 = all killed)
Conditions: 10 µM unless noted
Description: Growth inhibition of the HL-60(TB) human tumor cell line is measured as a screen for anti-cancer activity. Cells are grown in 96 well plates and exposed to the test compound for 48 hours. Compounds are tested at a single concentration, which is 10^-5 M for most compounds. The reported endpoint is percent growth (GI% or GIPRCNT), where numbers from 0 - 100% represent growth inhibition, and numbers from -100% - 0 represent cell death. For example, a value of 40 represents 60% growth inhibition. […]
Compounds without any hit were thinned out: in the full panel of roughly 83,000, 20% have a hit. The source made the active and inactive calls. The calls were made as follows: active = growth percent below 10; inactive = the rest.

These recorded examples may help you get a feel for the data.
[
  {
    "COMPOUND": "COC1=CC(c2ccc[nH]2)=N/C1=C\\c1[nH]c(C)c(C(=O)OC(C)C)c1C",
    "growth": "2.29% (active)"
  },
  {
    "COMPOUND": "CC(=O)Nc1nc(C)c(C(=O)N/N=C/N2CCCCC2)s1",
    "growth": "131% (inactive)"
  },
  {
    "COMPOUND": "CN=S(=O)(NC(=O)c1ccc(Cl)cc1Cl)c1ccc(Br)s1 (stereo not given)",
    "growth": "108% (inactive)"
  },
  {
    "COMPOUND": "CCOC(=O)C1=C(c2ccccc2)NC(=O)NC1CN1C(=O)c2ccccc2C1=O (stereo not given)",
    "growth": "57.4% (inactive)"
  },
  {
    "COMPOUND": "O=C(Nc1ccc(I)cc1)c1cc([N+](=O)[O-])ccc1O",
    "growth": "20.6% (inactive)"
  }
]

growth reading for Cn1c(N2NC(=O)C(N=Nc3ccc(S(N)(=O)=O)cc3)C2=O)nc(-c2ccco2)c(C#N)c1=O (stereo not given) : -41.4% (active)

growth reading for COc1ccc(-c2nn(-c3cccc(NC(=O)c4ccc(N5CCOCC5)c(C(F)(F)F)c4)c3)cc2-c2ccncc2)cc1Cl : 38.1% (inactive)

growth reading for O=C(Nc1cccc(C(F)(F)F)c1)Nc1ccc(OCc2nnc(-c3ccccc3)o2)c(F)c1 : -4.69% (active)

growth reading for COc1ccc(NC(=O)c2sc3nc4c(cc3c2N)C(O)CCC4)cc1 (stereo not given) : 93.2% (inactive)

growth reading for COc1ccc(-c2nc(N/N=C/c3cccc(O)c3)nc(N3CCOCC3)c2C#N)cc1 : 49.2% (inactive)

growth reading for CN1CCN(Cc2ccc(NC(=O)c3cncc(C#Cc4cncc5ncccc45)c3)cc2C(F)(F)F)CC1 : -3.29% (active)

growth reading for CSc1nc(NCCN2CCOCC2)c(C#N)c(-c2cccc([N+](=O)[O-])c2)n1 : 100% (inactive)

growth reading for Cc1cc(NS(=O)(=O)c2ccc(-c3cnc(C4CC4)o3)cc2)ccc1Cl : 0.815% (active)

---

tested on: MOLT-4 leukemia; experiment: NCI-60 one-dose screen, 48 h (100 = growth as untreated, 0 = no growth, -100 = all killed); settings: 10 µM
The panel holds about 83,000 compounds, 20% with a hit somewhere; the sample as a whole holds those more often.
Measured growth of individual entries
Field: numeric (%). Do not append units.

These recorded examples may help you get a feel for the data.
[
  {
    "MOLECULE": "NC(Cc1ccc(O)cc1)C(=O)N/N=C/c1ccc(N(CCCl)CCCl)cc1 (stereo unspecified)",
    "EXPERIMENTAL_TARGET": "MOLT-4 leukemia",
    "growth / %": 29.8
  },
  {
    "MOLECULE": "CN1C(=O)NC(=O)C(N=Nc2ccc(Cl)cc2)C1=O (stereo unspecified)",
    "EXPERIMENTAL_TARGET": "MOLT-4 leukemia",
    "growth / %": 96
  },
  {
    "MOLECULE": "O=CN1N=C(c2ccc3c(c2)OCO3)CC1c1sc(N(CCCl)CCCl)nc1Cl (stereo unspecified)",
    "EXPERIMENTAL_TARGET": "MOLT-4 leukemia",
    "growth / %": 79.3
  }
]

growth reading for ClCCN(CCCl)c1ccc(/C=C\c2ccnc3ccccc23)cc1 : 69.8

growth reading for C1CN1c1nc(N2CC2)nc(N2CC2)n1 : 10.5

growth reading for CCOC(=O)/C=C(\C)Nc1ccc(N/C(C)=C/C(=O)OCC)c2c1Oc1ccccc1O2 : 75.5

---

Tested on: HL-60(TB) leukemia
Assay: NCI-60 one-dose screen, 48 h
Conditions: 10 µM unless noted
Protocol: Growth inhibition of the HL-60(TB) human tumor cell line is measured as a screen for anti-cancer activity. Cells are grown in 96 well plates and exposed to the test compound for 48 hours. Compounds are tested at a single concentration, which is 10^-5 M for most compounds. The reported endpoint is percent growth (GI% or GIPRCNT), where numbers from 0 - 100% represent growth inhibition, and numbers from -100% - 0 represent cell death. For example, a value of 40 represents 60% growth inhibition. […]
This is part of a sample that, as a whole, favours compounds with a hit. Of some 83,000 tested, about 20% had one in any assay. The source made the active and inactive calls. Rule for the calls: active = growth percent below 10; inactive = the rest.
Parameter call: string, one of active, inactive

The following compounds have reported results that may help.
[
  {
    "COMPOUND": "COc1ccc(OC)c(C(=O)c2oc3ccc(Br)cc3c2N)c1",
    "CLASSIFICATION": "active"
  },
  {
    "COMPOUND": "O=C(NCCNc1nccc(-n2ccc3cccnc32)n1)c1ccc(C(F)(F)F)cc1",
    "CLASSIFICATION": "inactive"
  },
  {
    "COMPOUND": "COc1ccc2c(c1)C(=O)c1c-2c(OCCCN(C)C)nc2cc(Br)ccc12",
    "CLASSIFICATION": "inactive"
  },
  {
    "COMPOUND": "CCCCCOc1ccc(/C=N/Nc2cc(C)nc3ccc(Cl)cc23)cc1",
    "CLASSIFICATION": "active"
  },
  {
    "COMPOUND": "CC(SC(C)C(=O)N/N=C/c1cccc(Cl)c1)C(=O)N/N=C\\c1cccc(Cl)c1 (stereo unspecified)",
    "CLASSIFICATION": "inactive"
  },
  {
    "COMPOUND": "CC(C)c1ncc(CO)n1Cc1c(Cl)cccc1Cl",
    "CLASSIFICATION": "inactive"
  }
]

Given COc1cc(C=O)ccc1Oc1ccc([N+](=O)[O-])cc1[N+](=O)[O-] , state the outcome it received in this test. inactive

Given Cc1ccc2c(c1)C(C)Cc1c(N(C)C)ncnc1N2C (stereo unspecified) , state the outcome it received in this test. active

Given CSc1ccc(N=C=C(c2ccccc2)c2ccccc2)cc1 , state the outcome it received in this test. inactive

Given O=c1cc(C(F)(F)F)c2cc(-c3cc4ccccc4c(=O)o3)c(O)cc2o1 , state the outcome it received in this test. inactive

Given CC(C)CCCCCOC(=O)c1ccccc1SSc1ccccc1C(=O)OCCCCCC(C)C , state the outcome it received in this test. inactive
